# targetOfAssay: Rap guanine nucleotide exchange factor 4 (Homo sapiens) (UniProt Q8WZA2)
# Sequence (Q8WZA2 whole entry, looked up): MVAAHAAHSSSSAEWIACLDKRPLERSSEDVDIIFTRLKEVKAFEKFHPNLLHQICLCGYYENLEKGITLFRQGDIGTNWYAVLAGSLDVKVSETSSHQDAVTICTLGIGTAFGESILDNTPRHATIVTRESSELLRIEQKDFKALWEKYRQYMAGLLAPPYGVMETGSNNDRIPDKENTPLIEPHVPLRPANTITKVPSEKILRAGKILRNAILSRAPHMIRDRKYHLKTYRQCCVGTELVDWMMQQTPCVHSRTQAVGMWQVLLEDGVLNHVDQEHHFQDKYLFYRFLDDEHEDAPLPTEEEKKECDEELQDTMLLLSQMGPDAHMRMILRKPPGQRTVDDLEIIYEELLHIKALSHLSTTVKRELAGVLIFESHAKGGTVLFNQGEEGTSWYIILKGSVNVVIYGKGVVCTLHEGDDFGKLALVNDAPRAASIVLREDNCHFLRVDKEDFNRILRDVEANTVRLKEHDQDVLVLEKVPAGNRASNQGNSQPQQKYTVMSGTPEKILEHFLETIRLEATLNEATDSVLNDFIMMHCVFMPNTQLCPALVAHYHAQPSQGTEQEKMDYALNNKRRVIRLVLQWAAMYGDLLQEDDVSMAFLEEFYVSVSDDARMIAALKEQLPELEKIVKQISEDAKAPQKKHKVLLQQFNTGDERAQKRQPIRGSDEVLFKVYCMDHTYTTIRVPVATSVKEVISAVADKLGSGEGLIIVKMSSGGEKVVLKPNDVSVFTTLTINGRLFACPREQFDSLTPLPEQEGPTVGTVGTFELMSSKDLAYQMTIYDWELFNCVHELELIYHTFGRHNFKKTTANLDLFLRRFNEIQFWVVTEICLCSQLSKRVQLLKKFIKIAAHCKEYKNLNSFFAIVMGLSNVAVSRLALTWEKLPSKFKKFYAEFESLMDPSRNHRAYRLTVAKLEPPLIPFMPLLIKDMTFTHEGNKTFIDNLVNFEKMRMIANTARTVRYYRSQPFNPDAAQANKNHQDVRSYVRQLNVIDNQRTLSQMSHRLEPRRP
# assaySummary: Confirmatory qHTS for antagonist of cAMP-regulated guanine nucleotide exchange factor 4 (EPAC2) (AID 1645885); further: on the % scale 0 is the no-effect control and ±100 the full control effect; nearly all actives have a fitted effect of over 25% in size
# conditionInfo: EPAC2 Rap1B-BODIPY-GDP exchange fluorescence, biochemical; series mostly up to 114 µM
Results filed as inconclusive are left out. Calls of active or inactive are those of the source. The call rests on the fitted dose curve; in most records, active means well fitted inhibition curve with a large enough effect; inconclusive means small, poorly fitted or top-dose-only effect; inactive means no such curve, though single readings can be large or run the other way.
readoutLabel: activity change, negative = inhibition

Some solved entries appear below for comparison.
[[record]]
compound = "CC(C)N1C(=O)/C(=C/C=C/c2ccco2)C(=O)N(Cc2ccco2)C1=O"
reportedresult = "22.6% [at 12.7 µM] (inactive)"

[[record]]
compound = "Cc1cccc(C)c1-n1nnnc1C(c1ccccc1OC(F)(F)F)N1CCC(n2c(=O)[nH]c3ccccc32)CC1 (centres undefined)"
reportedresult = "inactive"

[[record]]
compound = "CCCCC/C=C\\C/C=C\\C/C=C\\C/C=C\\CCCC(=O)Nc1ccc(O)cc1"
reportedresult = "inactive"

[[record]]
compound = "Cc1cccc(N2C(=O)NC(=O)/C(=C\\c3cccn3-c3ccc(Cl)cc3)C2=O)c1"
reportedresult = "inactive"

[[record]]
compound = "COc1cc(-n2c(=S)[nH]c3ccc(C)cc3c2=O)c(Cl)cc1Cl"
reportedresult = "-17.7% [at 12.7 µM] (inactive)"


Record CC(=O)C1C2c3ccccc3O[C@@]1(C)N=c1s/c(=C/c3ccoc3)c(=O)n12 (some centres undefined) has Rap guanine nucleotide exchange factor 4 (Homo sapiens) (UniProt Q8WZA2) activity change, negative = inhibition equal to inactive

Value sought: activity change, negative = inhibition, system Rap guanine nucleotide exchange factor 4 (Homo sapiens) (UniProt Q8WZA2), item Cn1cccc1/C=C1\C(=O)NC(=O)N(Cc2ccccc2)C1=O . Result: inactive

Observed activity change, negative = inhibition, Rap guanine nucleotide exchange factor 4 (Homo sapiens) (UniProt Q8WZA2), FC(F)(F)c1cccc(C2NCc3ccccc3-n3cccc32)c1 (centres undefined) : 2.28% [at 12.7 µM] (inactive)

Value (activity change, negative = inhibition, Rap guanine nucleotide exchange factor 4 (Homo sapiens) (UniProt Q8WZA2)) for record COC(=O)c1cn(C(=O)c2cccc3ccccc23)c2ccccc12 = inactive

###

# assaySummary: Cell Viability - LYMP2-020 (AID 986);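 further: cells exposed to compound for 24 h at 37 °C; plate controls were DMSO only for no effect and tetraoctylammonium bromide at 92 µM for full effect; nearly all actives have a fitted effect of over 55% in size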
# conditionInfo: series mostly up to 92.2 µM
Results filed as inconclusive are left out. The source made the active and inactive calls. The call rests on the fitted dose curve; in most records, active means well fitted cell-killing curve with a large enough effect; inconclusive means small, poorly fitted or top-dose-only effect; inactive means flat fitted curve, though single readings scatter.
Select the correct class. Options are active, inactive and nothing else.

[[record]]
compound = "ClC(Cl)=C(c1ccc(Cl)cc1)c1ccc(Cl)cc1"
discretelabel = "inactive"


Input: # fetch the recorded call for C[C@H]1CCCC(=O)CCC/C=C/c2cc(O)cc(O)c2C(=O)O1 here
Output: inactive

Input: In this assay, the call recorded for C1CCC2CCCCC2C1 (stereo not given) was what?
Output: inactive

Input: How did this test come out for CC(O)CCl (stereo not given) ?
Output: inactive

Input: State the result this test recorded for Clc1nc(Cl)nc(Nc2ccccc2Cl)n1 .
Output: inactive

Input: Please share the test call associated with CCCOC(=O)c1ccccc1C(=O)OCCC .
Output: inactive

Input: So what was the verdict on CCN(CC)c1ccccc1 in this test?
Output: inactive

Input: I'd appreciate the recorded outcome for C=CCc1ccc(OC)cc1 from this test.
Output: inactive

Input: # outcome recorded in this test, key = Clc1cc(Cl)c(-c2cc(Cl)c(Cl)cc2Cl)cc1Cl
Output: inactive
